Target: Nav1.7 (Homo sapiens)
Construct: host or cells: HEK293 or CHO
Sequence (Q15858 whole entry): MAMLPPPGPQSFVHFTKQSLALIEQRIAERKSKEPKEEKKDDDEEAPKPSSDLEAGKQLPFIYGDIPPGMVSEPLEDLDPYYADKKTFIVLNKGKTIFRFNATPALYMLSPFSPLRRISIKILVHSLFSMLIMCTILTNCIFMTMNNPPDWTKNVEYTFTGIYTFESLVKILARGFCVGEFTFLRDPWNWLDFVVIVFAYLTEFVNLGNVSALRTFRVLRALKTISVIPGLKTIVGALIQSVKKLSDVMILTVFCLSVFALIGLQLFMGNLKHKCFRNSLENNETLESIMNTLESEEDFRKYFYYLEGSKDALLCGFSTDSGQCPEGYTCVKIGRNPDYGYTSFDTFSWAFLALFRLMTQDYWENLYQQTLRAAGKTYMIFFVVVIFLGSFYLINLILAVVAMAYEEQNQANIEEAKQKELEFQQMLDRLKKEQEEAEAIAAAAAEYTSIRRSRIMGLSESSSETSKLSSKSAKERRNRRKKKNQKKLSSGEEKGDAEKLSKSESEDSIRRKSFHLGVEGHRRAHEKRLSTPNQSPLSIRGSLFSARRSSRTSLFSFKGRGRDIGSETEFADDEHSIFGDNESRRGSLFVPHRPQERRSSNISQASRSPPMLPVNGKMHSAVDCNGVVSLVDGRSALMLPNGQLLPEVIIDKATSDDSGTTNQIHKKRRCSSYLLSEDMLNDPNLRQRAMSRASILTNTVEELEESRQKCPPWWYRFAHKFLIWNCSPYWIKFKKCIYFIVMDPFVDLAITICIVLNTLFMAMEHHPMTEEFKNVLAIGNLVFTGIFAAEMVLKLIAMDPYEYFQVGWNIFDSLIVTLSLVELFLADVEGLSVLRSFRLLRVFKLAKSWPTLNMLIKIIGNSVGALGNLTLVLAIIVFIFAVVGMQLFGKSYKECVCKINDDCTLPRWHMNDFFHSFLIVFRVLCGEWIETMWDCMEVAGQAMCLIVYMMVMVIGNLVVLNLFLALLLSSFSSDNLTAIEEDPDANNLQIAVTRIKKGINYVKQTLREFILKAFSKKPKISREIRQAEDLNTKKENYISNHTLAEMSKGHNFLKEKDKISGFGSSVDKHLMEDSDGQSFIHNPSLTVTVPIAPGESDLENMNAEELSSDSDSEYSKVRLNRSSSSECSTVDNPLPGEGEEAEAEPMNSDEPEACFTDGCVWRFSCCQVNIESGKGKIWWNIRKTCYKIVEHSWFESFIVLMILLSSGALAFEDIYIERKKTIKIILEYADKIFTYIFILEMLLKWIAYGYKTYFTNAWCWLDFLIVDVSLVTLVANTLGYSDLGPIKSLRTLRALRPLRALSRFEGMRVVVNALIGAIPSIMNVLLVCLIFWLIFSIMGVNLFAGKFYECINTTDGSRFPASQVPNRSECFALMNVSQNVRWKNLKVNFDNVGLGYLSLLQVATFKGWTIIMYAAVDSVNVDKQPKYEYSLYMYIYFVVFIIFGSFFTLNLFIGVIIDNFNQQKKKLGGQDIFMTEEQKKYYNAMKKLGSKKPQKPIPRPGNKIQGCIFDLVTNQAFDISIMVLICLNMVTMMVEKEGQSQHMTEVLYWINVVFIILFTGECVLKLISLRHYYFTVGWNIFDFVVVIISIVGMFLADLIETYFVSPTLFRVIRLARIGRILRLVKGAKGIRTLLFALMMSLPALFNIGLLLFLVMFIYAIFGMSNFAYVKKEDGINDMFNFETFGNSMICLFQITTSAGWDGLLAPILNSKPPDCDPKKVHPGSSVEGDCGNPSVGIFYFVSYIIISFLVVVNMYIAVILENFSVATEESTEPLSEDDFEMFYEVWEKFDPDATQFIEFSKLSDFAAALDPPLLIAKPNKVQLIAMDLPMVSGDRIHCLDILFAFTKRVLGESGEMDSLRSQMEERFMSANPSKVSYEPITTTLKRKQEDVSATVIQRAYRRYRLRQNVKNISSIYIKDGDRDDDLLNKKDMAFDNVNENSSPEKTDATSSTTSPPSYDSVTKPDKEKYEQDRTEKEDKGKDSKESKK
Experiment: cell-based
Format: cell-based
Conditions: peptide at 0.2 μM; second of two Nav1.7 columns (probably TP2); 100% = no change
I'd appreciate it if you could supply Activity of Nav1.7 with peptide, expressed as a percentage of the reference compound values for the items below.

For reference, reported Activity of Nav1.7 with peptide, expressed as a percentage of the reference compound for 39 (GSGVPTDVKCRGSPQCIQPCKDAGMRFGKCMNGKCHCTPK) [compound 39] stands at 39%

For reference, reported Activity of Nav1.7 with peptide, expressed as a percentage of the reference compound for 5 (GSGVPINVKCRGSRDCLDPCKKAGMRFGKCINSKCHCTP) [compound 5] stands at 109%

For reference, reported Activity of Nav1.7 with peptide, expressed as a percentage of the reference compound for 23 (GSCIGEGVPCDENDPRCCFGLVCLKPTLHGIWYKSYYCYKK) [compound 23] stands at 93%

For reference, reported Activity of Nav1.7 with peptide, expressed as a percentage of the reference compound for 9 (GSGCFGYKCDYYKGCCSGYVCSPTWKWCVRPGPGR) [compound 9] stands at 110%

For reference, reported Activity of Nav1.7 with peptide, expressed as a percentage of the reference compound for 29 (GSVFINVKCRGSPECLPKCKEAIGKSAGKCMNGKCKCYP) [compound 29] stands at 111%

For reference, reported Activity of Nav1.7 with peptide, expressed as a percentage of the reference compound for 38 (GSGIGDPVTCLKSGAICHPVFCPRRYKQIGTCGLPGTKCCKKP) [compound 38] stands at 143%

For reference, reported Activity of Nav1.7 with peptide, expressed as a percentage of the reference compound for 17 (GSRPTDIKCSASYQCFPVCKSRFGKTNGRCVNGLCDCF) [compound 17] stands at 61%
